The reported numbers originate from PubChem BioAssay (NCI).

System: SF-295 CNS
Assay: NCI tumour cell line growth inhibition, 48 h
Item-by-item account of TGI

# example entries with known answers
{"compound": "COC1=CC(=O)c2nc(Cl)ccc2C1=O", "experimental target": "SF-295 CNS", "measurement label": "TGI", "endpoint value": "3.51 µM"}
{"compound": "[N-]=[N+]=CC(=O)CCC(=O)N(c1ccccc1)c1ccccc1", "experimental target": "SF-295 CNS", "measurement label": "TGI", "endpoint value": "> 10 µM"}
{"compound": "O=C1C2C3C=CC(C2C(=O)N1CN1CCSCC1)C1C2C(=O)N(CN4CCSCC4)C(=O)C2C31 (configuration not stated)", "experimental target": "SF-295 CNS", "measurement label": "TGI", "endpoint value": "> 100 µM"}
{"compound": "C=C1Cc2cc(OC)c(OC)c(OC)c2-c2ccc(SC)c(=O)cc21", "experimental target": "SF-295 CNS", "measurement label": "TGI", "endpoint value": "4.12 µM"}
{"compound": "Nc1nc(=S)n(-c2ccc(Cl)cc2)c2nc3ccccc3cc12", "experimental target": "SF-295 CNS", "measurement label": "TGI", "endpoint value": "> 100 µM"}
{"compound": "O=C1C(S(=O)(=O)c2ccccc2)=C(CS(=O)(=O)c2ccccc2)[C@@H](OCc2ccccc2)[C@@H]1OCc1ccccc1", "experimental target": "SF-295 CNS", "measurement label": "TGI", "endpoint value": "40.4 µM"}
{"compound": "COC(=O)[C@]12CC[C@@H](C)[C@H](C)[C@@H]1C1=CC[C@@H]3[C@@]4(C)C(C=O)=C[C@@](C)(COC(=O)/C=C/c5ccccc5)[C@@H]4[C@H](O)C[C@@]3(C)[C@]1(C)CC2", "experimental target": "SF-295 CNS", "measurement label": "TGI", "endpoint value": "5.78 µM"}
{"compound": "Cn1cnc([N+](=O)[O-])c1Sc1nccc(=O)[nH]1", "experimental target": "SF-295 CNS", "measurement label": "TGI", "endpoint value": "> 100 µM"}
{"compound": "O=[N+]([O-])c1cc2c([N+](=O)[O-])cccc2o1", "experimental target": "SF-295 CNS", "measurement label": "TGI", "endpoint value": "42.4 µM"}
{"compound": "c1ccc([P+](CCCCCC[P+](c2ccccc2)(c2ccccc2)c2ccccc2)(c2ccccc2)c2ccccc2)cc1", "experimental target": "SF-295 CNS", "measurement label": "TGI", "endpoint value": "> 100 µM"}

Entry `O=c1oc2ccc3ccccc3c2cc1-c1nc2ccc([N+](=O)[O-])cc2o1` : reported TGI = ? > 49.5 µM

Then this compound: `C#Cc1cccc(NC(=O)c2ccc(NC(=O)CCl)cc2)c1` > 82.5 µM

====

A collection of compounds and their measured TGI
Tested on: U251 CNS
Experiment: NCI tumour cell line growth inhibition, 48 h

Recorded results for 5 compounds are shown here.
{"compound": "CCN=C(C#N)NCC", "experimental target": "U251 CNS", "measurement label": "TGI", "endpoint value": "> 100 µM"}
{"compound": "Nc1c(F)cc(-c2nc3cc(F)ccc3[se]2)cc1Br", "experimental target": "U251 CNS", "measurement label": "TGI", "endpoint value": "70.5 µM"}
{"compound": "c1ccc([P+](c2ccccc2)(c2ccccc2)C2c3ccccc3-c3ccccc32)cc1", "experimental target": "U251 CNS", "measurement label": "TGI", "endpoint value": "4.12 µM"}
{"compound": "CC1C(c2ccccc2O)c2cc3c(cc2OC1N1CCOCC1)OCO3 (stereo not given)", "experimental target": "U251 CNS", "measurement label": "TGI", "endpoint value": "64.7 µM"}
{"compound": "[O-]c1c2c(nn1-c1ccc(Cl)cc1)c1ccccc1c[n+]2Cc1ccccc1", "experimental target": "U251 CNS", "measurement label": "TGI", "endpoint value": "> 100 µM"}

Consider the record given below.
Notebook entry, U251 CNS assay: TGI of `COc1ccc(N(C)c2nc(Cl)nc3cnn(C)c23)cc1` = ? > 100 µM

====

Tested on: HL-60(TB) leukemia
Assay: NCI tumour cell line growth inhibition, 48 h
measurement label: log10 of TGI (log10 of the value in µM)
Reminder: these figures are log10 of reported TGI, in µM before transformation.

Solved entries:
{"compound": "CN(C)c1ccc(/C=C/c2cc(-c3ccccc3)[n+](C)n2-c2ccccc2)cc1", "experimental target": "HL-60(TB) leukemia", "endpoint value": -0.89}
{"compound": "COC1=CC(=O)c2nc(Cl)ccc2C1=O", "experimental target": "HL-60(TB) leukemia", "endpoint value": 0.88}
{"compound": "C[C@@H](Oc1cc(-n2cnc3ccc(OC[C@@H](O)CO)cc32)sc1C(N)=O)c1ccccc1Cl", "experimental target": "HL-60(TB) leukemia", "endpoint value": -0.06}
{"compound": "O=c1c2ccccc2[nH]c2c(Cl)cc(Cl)c(N3CCCCC3)c12", "experimental target": "HL-60(TB) leukemia", "endpoint value": 1.87}
{"compound": "CN(C)CCNC(=O)NC[C@H]1CC[C@@H]2[C@H](O1)c1cc(C(F)(F)F)ccc1N[C@H]2c1ccccc1", "experimental target": "HL-60(TB) leukemia", "endpoint value": -0.17}

I have this compound here, CC1=C([Se]CC(OC(=O)[C@@H](CO)NC(=O)OC(C)(C)C)C(=O)NCCCCCC(=O)OCc2ccccc2)C(=O)c2ccccc2C1=O (some centres not stated) , and I need its recorded log10 of TGI. 0.68

Proceed to `Cc1c(F)c(NC(=O)CN(C)C)c2c(=O)cc(-c3ccc(NC(=O)CN(C)C)c(F)c3)oc2c1F` 1.56

Note, next up: `Fc1ccc(Nc2nc3ccccc3c3occc23)cc1` 1.57

Ok, now `Cc1cc(=O)oc2cc(OC/C=C3\CCC(=O)O3)ccc12` 1.51

====

Tested on: HOP-92 NSCLC
Test: NCI tumour cell line growth inhibition, 48 h; in the data active = GI50 below about 0.43 µM; inactive = the rest
I would appreciate it if you answered using one of these outcomes: true for active, false for inactive

For `C=C1C(=O)O[C@H]2[C@H]1CC/C(COC(=O)NCCCCCCCCNC(=O)OC/C1=C/CC[C@@]3(C)O[C@H]3[C@H]3OC(=O)C(=C)[C@@H]3CC1)=C\CC[C@@]1(C)O[C@@H]21` , which call appears in the assay record? true

Another molecule to look at: COc1cccc2c1C(=O)c1c(O)c3c(c(O)c1C2=O)C[C@@](O)(C(=O)CO)CC3OC1CC(NCCCC(OC(C)=O)OC(C)=O)C(O)C(C)O1 (some centres not stated) true

Continue with `COc1ccc2c(c1)C(=O)c1c-2c(Nc2cccc(C(C)=O)c2)nc2ccccc12` false

Input `FC(F)(F)c1cc(Nc2ccc3cc(OCCCN4CCOCC4)ccc3n2)ccc1Cl` false

Also CCCCCCCC(=O)[O][Hg][CH2]C1COC([CH2][Hg][O]C(=O)CCCCCCC)CO1 (configuration not stated) , if possible. false

====

Tested on: SK-MEL-28 melanoma
Assay: NCI tumour cell line growth inhibition, 48 h
measurement label: TGI (µM)
Dear colleague, please return just the value in µM, with no unit written.

{"molecule": "S=C=NC1CCC(c2cc3ccccc3s2)(N2CCCCC2)CC1 (stereo not given)", "TGI (µM)": 3.39}
{"molecule": "CCOC(=O)C(Cc1ccc(N(CCCl)CCCl)cc1)NC(=O)CCCN1C(=O)CN=C(c2ccccc2)c2cc(Cl)ccc21 (stereo not given)", "TGI (µM)": 8.35}
{"molecule": "CCOC(=O)c1cc(C2CCN(Cc3ccccc3)C2=S)c(C(=O)C=[N+]=[N-])[nH]1 (stereo not given)", "TGI (µM)": 51.5}
{"molecule": "N/C(=N\\S(=O)(=O)c1cc(Cl)c(Oc2ccc([N+](=O)[O-])cc2Cl)c(Cl)c1)Nc1ccc(Cl)cc1", "TGI (µM)": 33}
{"molecule": "O=C(C/C=C/c1ccccc1)c1ccccc1", "TGI (µM)": 53.6}
{"molecule": "COC1C(O)C(C)OC(OC2CCC3(C)C(CCC4C3C(O)CC3(C)C(C5=CC(=O)OC5)CCC43O)C2)C1O (stereo not given)", "TGI (µM)": 1.62}

Suppose we examine the molecule `Nc1ccc(Sc2c3ccccc3nc3ccccc23)cc1` ; what TGI value has been reported? 24.8

Let us now turn to `FC(F)(F)c1cc(Nc2ccc3cc(OCCCN4CCOCC4)ccc3n2)ccc1Cl` 3.39

Next record, please: `COc1cnc2c(c1)C(=O)c1c-2n(CCCN2CCNCC2)c(=O)c2cc([N+](=O)[O-])ccc12` 3.12

====

Test system: SN12C renal
Assay: NCI tumour cell line growth inhibition, 48 h
Entries and their TGI values follow.
A number alone suffices; assume µM.

Use the examples below as a reference point.
{"compound": "Cc1c(F)c(NC(=O)CN(C)C)c2c(=O)cc(-c3ccc(NC(=O)CN(C)C)c(F)c3)oc2c1F", "experimental target": "SN12C renal", "TGI [µM]": 36.3}
{"compound": "C=C1C(=O)O[C@H]2[C@H]1CC/C(COC(=O)NCCCCCCCCNC(=O)OC/C1=C/CC[C@@]3(C)O[C@H]3[C@H]3OC(=O)C(=C)[C@@H]3CC1)=C\\CC[C@@]1(C)O[C@@H]21", "experimental target": "SN12C renal", "TGI [µM]": 0.849}
{"compound": "CC(=O)OCC1OC(n2nc(Cc3ccccc3)c(=S)[nH]c2=S)C(OC(C)=O)C(OC(C)=O)C1OC(C)=O (stereo not given)", "experimental target": "SN12C renal", "TGI [µM]": 55.3}
{"compound": "C=CCCCCCCCCC(=O)O", "experimental target": "SN12C renal", "TGI [µM]": 339}
{"compound": "Cc1nnc(Sc2nc(C#N)c(C#N)nc2Sc2nnc(C)s2)s1", "experimental target": "SN12C renal", "TGI [µM]": 26.4}

Item under review: `C=C1Cc2cc(OC)c(OC)c(OC)c2-c2ccc(SC)c(=O)cc21` . Reported TGI? 1.6

Next compound up: `Cc1ccc(S(=O)(=O)Nc2ccc(-c3cc(-c4cccc(F)c4)c(C#N)c(N)n3)cc2)cc1` 7.11

Also check CC1=C([Se]CC(OC(=O)[C@@H](CO)NC(=O)OC(C)(C)C)C(=O)NCCCCCC(=O)OCc2ccccc2)C(=O)c2ccccc2C1=O (stereo not given in full) 3.59
